Biological target: CGRP1 receptor (CRLR/RAMP1 complex) of human neuroblastoma SK-N-MC cells (human, UniProt Q16602 23-461; O60894 27-148)
Sequence (Q16602 23-461, chain 1 of 2): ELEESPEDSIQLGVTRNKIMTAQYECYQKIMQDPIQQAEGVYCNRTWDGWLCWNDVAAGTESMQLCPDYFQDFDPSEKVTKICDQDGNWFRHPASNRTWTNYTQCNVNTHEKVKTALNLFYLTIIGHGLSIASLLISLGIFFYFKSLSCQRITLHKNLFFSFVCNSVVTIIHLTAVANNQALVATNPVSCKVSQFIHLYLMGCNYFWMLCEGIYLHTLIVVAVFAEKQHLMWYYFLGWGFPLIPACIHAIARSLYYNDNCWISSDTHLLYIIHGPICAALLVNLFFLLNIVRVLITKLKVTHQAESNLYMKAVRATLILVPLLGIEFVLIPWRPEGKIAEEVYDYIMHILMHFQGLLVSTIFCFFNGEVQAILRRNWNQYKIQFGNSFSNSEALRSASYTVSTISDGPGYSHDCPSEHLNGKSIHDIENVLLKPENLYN
Sequence (O60894 27-148, chain 2 of 2): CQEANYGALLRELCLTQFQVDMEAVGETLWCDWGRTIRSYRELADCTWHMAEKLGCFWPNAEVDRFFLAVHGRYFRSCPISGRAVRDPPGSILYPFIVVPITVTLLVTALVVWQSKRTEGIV
Test: cell-based or functional assay
Bridge positions count the residues as written; N and C are the ends.
Each record here notes measured Peptide IC50.
value.type: Peptide IC50 (nM)

{"columns": ["binder", "endpoint.value"],
 "data": [
  ["WVTHXLAGLLSXSGGVVXKNFVXTDVGXFAX (Ac-WVTH[Cit]LAGLLS[Cit]SGGVV[hArg]KNFV[Oic]TDVG[Oic]FA[2-Nal]-NH2) [SEQ ID NO 948]", 2.57],
  ["WVTHRLAGLLSRSGGVVRKNXVPTDVGPFAF (Ac-WVTHRLAGLLSRSGGVVRKN[2-Nal]VPTDVGPFAF-NH2) [SEQ ID NO 912]", 1.16],
  ["WVEHRLKGELSRKGGVVXKNFVPTDVGPFAF (Ac-WVEHRLKGELSRKGGVV[hArg]KNFVPTDVGPFAF-NH2) [SEQ ID NO 901]", 1.02],
  ["WVTHXLAGLLSXSGGVVRKNFVXTDVGXFAF (Ac-WVTH[Cit]LAGLLS[Cit]SGGVVRKNFV[Oic]TDVG[Oic]FAF-NH2) [SEQ ID NO 921]", 0.93],
  ["WVTHXLAGLLSXSGGVVRKNFVPTDVGPXAF (Ac-WVTH[Cit]LAGLLS[Cit]SGGVVRKNFVPTDVGP[Tic]AF-NH2) [SEQ ID NO 962]", 10.1],
  ["Ac-WVEHRLKGLLSRSGGVVRKNFVPTDVGPFAF-NH2 (lactam 3-7) [SEQ ID NO 891]", 1.47]
]}
